These entries and their values trace back to PubChem BioAssay (NCATS).

# Tested on: W2
# Protocol description: qHTS profiling for inhibitors of Plasmodium falciparum proliferation (AID 504749); note: nearly all actives have a fitted effect of over 60% in size
# Experimental setup: P. falciparum in erythrocytes, SYBR Green DNA, 72 h; series mostly up to 28.7 µM
Results filed as inconclusive are left out. Calls of active or inactive are those of the source. Calls come from the whole dose curve; as a rule, active = well fitted inhibition curve with a large enough effect; inconclusive = small, poorly fitted or top-dose-only effect; inactive = flat fitted curve, though single readings scatter.
Pick one: 1 for active, 0 for inactive

Study these solved cases before continuing.
- Compound: "CCC1C(=O)OCC1Cc1cncn1C (stereo not drawn)"
  Assigned class: 0
- Compound: "CC(=O)[C@]1(O)Cc2c(O)c3c(c(O)c2[C@@H](O[C@H]2C[C@H](N)[C@H](O)[C@H](C)O2)C1)C(=O)c1c(O)cccc1C3=O"
  Assigned class: 1

Switching to the query record.
Dear all, I need the recorded test outcome for COc1ccc(-c2cc(=S)ss2)cc1 , thank you.
0

* * *

# Tested on: PC49
# Protocol description: qHTS profiling for inhibitors of Plasmodium falciparum proliferation (AID 504749); note: nearly all actives have a fitted effect of over 60% in size
# Experimental setup: P. falciparum in erythrocytes, SYBR Green DNA, 72 h; series mostly up to 28.7 µM
Inconclusive results are not listed. Calls of active or inactive are those of the source. Calls come from the whole dose curve; as a rule, active = well fitted inhibition curve with a large enough effect; inconclusive = small, poorly fitted or top-dose-only effect; inactive = flat fitted curve, though single readings scatter.
Pick one: y for active, n for inactive

Study these solved cases before continuing.
- Molecule: "CCOC(=O)c1ccccc1O"
  Assigned class: "n"
- Molecule: "CC(=O)[C@]1(O)Cc2c(O)c3c(c(O)c2[C@@H](O[C@H]2C[C@H](N)[C@H](O)[C@H](C)O2)C1)C(=O)c1c(O)cccc1C3=O"
  Assigned class: "y"

Dear all, I need the recorded test outcome for N=c1ccn2c(n1)O[C@H]1[C@H](O)[C@@H](CO)O[C@H]12 , thank you.
n

* * *

# Assayed system: Voltage-gated inwardly rectifying potassium channel KCNH2 (Homo sapiens) (UniProt Q12809)
# Sequence (Q12809 whole entry, looked up): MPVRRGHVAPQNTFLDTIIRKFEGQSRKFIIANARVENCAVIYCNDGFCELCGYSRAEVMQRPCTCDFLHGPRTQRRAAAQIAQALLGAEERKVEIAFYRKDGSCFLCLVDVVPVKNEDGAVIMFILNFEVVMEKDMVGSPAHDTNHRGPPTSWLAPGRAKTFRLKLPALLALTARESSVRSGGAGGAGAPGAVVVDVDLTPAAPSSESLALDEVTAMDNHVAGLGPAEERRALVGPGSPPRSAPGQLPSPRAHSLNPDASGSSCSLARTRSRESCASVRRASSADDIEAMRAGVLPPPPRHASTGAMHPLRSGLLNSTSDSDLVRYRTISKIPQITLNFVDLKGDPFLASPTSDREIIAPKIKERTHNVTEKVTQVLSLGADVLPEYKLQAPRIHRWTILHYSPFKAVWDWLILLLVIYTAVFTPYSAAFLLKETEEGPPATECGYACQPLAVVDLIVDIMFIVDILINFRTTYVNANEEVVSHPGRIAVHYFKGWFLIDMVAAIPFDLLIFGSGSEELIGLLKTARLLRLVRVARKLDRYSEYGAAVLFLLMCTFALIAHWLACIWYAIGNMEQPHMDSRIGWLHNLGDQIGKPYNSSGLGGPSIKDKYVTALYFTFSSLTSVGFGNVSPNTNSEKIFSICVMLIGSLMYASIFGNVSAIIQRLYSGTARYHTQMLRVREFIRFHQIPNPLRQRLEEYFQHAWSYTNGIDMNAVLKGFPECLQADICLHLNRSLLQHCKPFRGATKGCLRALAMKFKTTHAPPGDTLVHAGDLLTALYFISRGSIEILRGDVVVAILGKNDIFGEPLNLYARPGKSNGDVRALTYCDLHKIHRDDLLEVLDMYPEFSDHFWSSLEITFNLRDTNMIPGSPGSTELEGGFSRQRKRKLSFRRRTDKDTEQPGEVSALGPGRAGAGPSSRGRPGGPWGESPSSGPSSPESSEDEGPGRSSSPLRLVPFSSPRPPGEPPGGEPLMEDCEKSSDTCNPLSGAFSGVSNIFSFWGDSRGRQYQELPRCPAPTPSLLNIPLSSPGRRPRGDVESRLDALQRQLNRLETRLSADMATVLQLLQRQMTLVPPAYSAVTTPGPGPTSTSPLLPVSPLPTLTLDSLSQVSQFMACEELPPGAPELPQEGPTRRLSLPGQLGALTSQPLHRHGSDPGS
# Protocol description: qHTS Assay for Small Molecule Inhibitors of the Human hERG Channel Activity (AID 588834);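 note: lower thallium flux fluorescence means stronger hERG block; nearly all actives have a fitted effect of over 50% in size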
# Experimental setup: U2OS BacMam hERG, FluxOR thallium flux fluorescence; series mostly up to 46.1 µM
Results filed as inconclusive are left out. Active and inactive are the calls of the source. Calls come from the whole dose curve; as a rule, active = well fitted inhibition curve with a large enough effect; inconclusive = small, poorly fitted or top-dose-only effect; inactive = flat fitted curve, though single readings scatter.
Pick one: yes (1) (active), no (0) (inactive)

Study these solved cases before continuing.
- Compound: "Nc1c(CC(=O)O)cccc1C(=O)c1ccc(Br)cc1"
  Assigned class: "no (0)"
- Compound: "c1ccc2sc(SSc3nc4ccccc4s3)nc2c1"
  Assigned class: "no (0)"
- Compound: "N#C/C(=C\\c1ccc(O)c(O)c1)C(=O)c1ccc(O)c(O)c1"
  Assigned class: "no (0)"

Dear all, I need the recorded test outcome for NCCCCC(=O)O , thank you.
no (0)

Dear all, I need the recorded test outcome for CN=c1nc(-c2ccccc2)n(-c2ccccc2)s1 , thank you.
yes (1)

Dear all, I need the recorded test outcome for O=C(O)Cc1ccc(-c2ccccc2)cc1 , thank you.
no (0)

Dear all, I need the recorded test outcome for COc1cc(NC(C)CCCN)c2ncccc2c1 (centres undefined) , thank you.
no (0)

Dear all, I need the recorded test outcome for Cc1ccc(O)c(-n2nc3ccccc3n2)c1 , thank you.
no (0)

Dear all, I need the recorded test outcome for CC12C(=O)OC(=O)C1(C)C1CCC2O1 (centres undefined) , thank you.
no (0)

Dear all, I need the recorded test outcome for NCCO , thank you.
no (0)

Dear all, I need the recorded test outcome for NC(=O)C(=O)O , thank you.
no (0)

Dear all, I need the recorded test outcome for Nc1cc(-c2ccncc2)c[nH]c1=O , thank you.
no (0)

Dear all, I need the recorded test outcome for COc1cc(OC)c(/C=C2/C(=O)Nc3ccccc32)c(OC)c1 , thank you.
no (0)

Dear all, I need the recorded test outcome for O=C(O)CNC(=O)C(CS)Cc1ccccc1 (centres undefined) , thank you.
no (0)

* * *

# Protocol description: Cell Viability - Jurkat (AID 426);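 note: potency is the fitted concentration of half-maximal effect; cells exposed to compound for 40 hours at 37 °C before ATP read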
# Experimental setup: qHTS
Results filed as inconclusive are left out. Active and inactive are the calls of the source.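 The calls were made as follows: active = dose-dependent loss of cell ATP signal giving a full or clear fitted curve, ranked by lower potency value; inconclusive = weak partial curve or response only at the top dose; inactive = no loss of viability signal.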
Pick one: active, inactive

- Smi: "CN1CCC[C@H]1c1cccnc1"
  Assigned class: "inactive"
- Smi: "S=c1[nH]c2ccccc2s1"
  Assigned class: "inactive"
- Smi: "CCCCCCCCCCCCCCCCCC(=O)O"
  Assigned class: "inactive"
- Smi: "Nc1ccc(O)c(C(=O)O)c1"
  Assigned class: "inactive"
- Smi: "O=c1cc(-c2ccccc2)oc2ccccc12"
  Assigned class: "inactive"
- Smi: "O=C(O)/C=C\\C(=O)O"
  Assigned class: "inactive"

Dear all, I need the recorded test outcome for CCCOC(=O)c1ccc(O)cc1 , thank you.
inactive

Dear all, I need the recorded test outcome for CC1(C)S[C@@H]2[C@H](NC(=O)[C@H](N)c3ccccc3)C(=O)N2[C@H]1C(=O)O , thank you.
inactive

Dear all, I need the recorded test outcome for Nc1nc2ccc([N+](=O)[O-])cc2s1 , thank you.
inactive

Dear all, I need the recorded test outcome for Oc1ccccc1O , thank you.
active

Dear all, I need the recorded test outcome for Nc1ccc([N+](=O)[O-])cc1O , thank you.
inactive

* * *

# Protocol description: qHTS for differential inhibitors of proliferation of Plasmodium falciparum line D10 (AID 1877);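 note: parasites grown with compound for 72 h before DNA staining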
# Experimental setup: series mostly up to 28.7 µM
Results filed as inconclusive are left out. Activity calls are given as the source filed them. The call rests on the fitted dose curve; in most records, active means well fitted curve in the direction sought with a large enough effect; inconclusive means small, poorly fitted or top-dose-only effect, or another doubt; inactive means no such curve, though single readings can be large or run the other way.
Pick one: true (1) for active, false (0) for inactive

- Molecule: "O=C(O)CCCC[C@@H]1CCSS1"
  Assigned class: "false (0)"
- Molecule: "CC(C)Cc1ccc([C@H](C)C(=O)O)cc1"
  Assigned class: "false (0)"
- Molecule: "O=c1[nH]c2cc([N+](=O)[O-])c([N+](=O)[O-])cc2[nH]c1=O"
  Assigned class: "false (0)"
- Molecule: "Cn1c(=O)c2[nH]c(-c3ccccc3)nc2n(C)c1=O"
  Assigned class: "false (0)"
- Molecule: "CN(C)CCC(c1ccc(Cl)cc1)c1ccccn1 (centres undefined)"
  Assigned class: "false (0)"

Switching to the query record.
Dear all, I need the recorded test outcome for CN(C)c1nc(N)c(C(=O)N=C(N)N)nc1Cl , thank you.
true (1)

* * *

# Protocol description: qHTS assay to identify small molecule inhibitors of chordoma cells - UCH-2 (AID 1259356)
# Experimental setup: UCH-2 chordoma viability, CellTiter-Glo ATP luminescence, 48 h; series mostly up to 46.1 µM
Records with an inconclusive call do not appear. The source made the active and inactive calls. The call rests on the fitted dose curve; in most records, active means well fitted cell-killing curve with a large enough effect; inconclusive means small, poorly fitted or top-dose-only effect; inactive means flat fitted curve, though single readings scatter.
Pick one: label 1 for active, label 0 for inactive

Study these solved cases before continuing.
- Smi: "CC1(C)[C@@H](O[C@H]2O[C@H](C(=O)O)[C@@H](O)[C@H](O)[C@H]2O[C@@H]2O[C@H](C(=O)O)[C@@H](O)[C@H](O)[C@H]2O)CC[C@]2(C)[C@H]3C(=O)C=C4[C@@H]5C[C@@](C)(C(=O)O)CC[C@]5(C)CC[C@@]4(C)[C@]3(C)CC[C@@H]12"
  Assigned class: "label 0"
- Smi: "CCOc1ccc2nc(S(N)(=O)=O)sc2c1"
  Assigned class: "label 0"
- Smi: "CC(=O)O[C@H]1C[C@@]2(C)[C@@H](C[C@@H](O)[C@H]3[C@@]4(C)CC[C@@H](O)[C@@H](C)[C@@H]4CC[C@@]32C)/C1=C(\\CCC=C(C)C)C(=O)O"
  Assigned class: "label 0"

Dear all, I need the recorded test outcome for CCCCCCOc1ccccc1C(N)=O , thank you.
label 0

Dear all, I need the recorded test outcome for N=c1ccn2c(n1)O[C@H]1[C@H](O)[C@@H](CO)O[C@H]12 , thank you.
label 0

Dear all, I need the recorded test outcome for COc1cc(CNC(=O)CCCC/C=C/C(C)C)ccc1O , thank you.
label 0

Dear all, I need the recorded test outcome for CCOC(=O)c1ccccc1O , thank you.
label 0

Dear all, I need the recorded test outcome for CC(=O)[C@]1(O)Cc2c(O)c3c(c(O)c2[C@@H](O[C@H]2C[C@H](N)[C@H](O)[C@H](C)O2)C1)C(=O)c1c(O)cccc1C3=O , thank you.
label 1

Dear all, I need the recorded test outcome for CCCCCC[C@@H](O)C/C=C\CCCCCCCC(=O)O , thank you.
label 0

* * *

# Protocol description: qHTS of pediatric cancer cell lines to identify multiple opportunities for drug repurposing: Confirmatory screen for SK-N-SH cells (AID 1347129);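 note: cells exposed to compound for 48 h before viability read; nearly all actives have a fitted effect of over 60% in size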
# Experimental setup: SK-N-SH neuroblastoma cell viability; series mostly up to 97.6 µM
Inconclusive results are not listed. Active and inactive are the calls of the source. The call rests on the fitted dose curve; in most records, active means well fitted cell-killing curve with a large enough effect; inconclusive means small, poorly fitted or top-dose-only effect; inactive means flat fitted curve, though single readings scatter.
Pick one: active, inactive

Study these solved cases before continuing.
- Smi: "N=C1N=C(N)c2cc3ccccc3cc21"
  Assigned class: "active"
- Smi: "[O-][n+]1ccccc1SSc1cccc[n+]1[O-]"
  Assigned class: "active"
- Smi: "Nc1ccc([N+](=O)[O-])cc1O"
  Assigned class: "inactive"
- Smi: "CN(C)c1ccc(C(=C2C=CC(=[N+](C)C)C=C2)c2ccccc2)cc1"
  Assigned class: "active"

Switching to the query record.
Dear all, I need the recorded test outcome for CCCSc1ccc2nc(NC(=O)OC)[nH]c2c1 , thank you.
active

* * *

# Protocol description: qHTS for differential inhibitors of proliferation of Plasmodium falciparum line W2 (AID 1883);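 note: parasites grown with compound for 72 h before lysis and staining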
# Experimental setup: Plasmodium falciparum W2 proliferation inhibition; series mostly up to 28.7 µM
Records with an inconclusive call do not appear. Calls of active or inactive are those of the source. Calls come from the whole dose curve; as a rule, active = well fitted curve in the direction sought with a large enough effect; inconclusive = small, poorly fitted or top-dose-only effect, or another doubt; inactive = no such curve, though single readings can be large or run the other way.
Pick one: active, inactive

- Molecule: "NCCCS(=O)(=O)O"
  Assigned class: "active"

Dear all, I need the recorded test outcome for N#C/C(=C\c1ccc(O)c(O)c1)C(=O)NCc1ccccc1 , thank you.
active

Dear all, I need the recorded test outcome for N#C/C(=C\c1ccc(O)c(O)c1)C(=O)NCCCc1ccccc1 , thank you.
active

Dear all, I need the recorded test outcome for Fc1ccc(C(OCCCc2cnc[nH]2)c2ccc(F)cc2)cc1 , thank you.
active

Dear all, I need the recorded test outcome for O=C(O)c1cc(=O)c2ccccc2[nH]1 , thank you.
inactive

Dear all, I need the recorded test outcome for CCCn1c(=O)c2[nH]c(-c3ccc(OCC(=O)NCCN)cc3)nc2n(CCC)c1=O , thank you.
active

Dear all, I need the recorded test outcome for COC(=O)c1c(C)[nH]c(C)c1C(=O)c1ccccc1Cc1ccccc1 , thank you.
active

Dear all, I need the recorded test outcome for C[C@@H](NC(=O)/C(C#N)=C/c1ccc(O)c(O)c1)c1ccccc1 , thank you.
active

Dear all, I need the recorded test outcome for CC(C)(C=O)Cc1cc(C(C)(C)C)c(O)c(C(C)(C)C)c1 , thank you.
inactive

Dear all, I need the recorded test outcome for COc1cccc(OC)c1OCCNCC1COc2ccccc2O1 (stereo unspecified) , thank you.
active

Dear all, I need the recorded test outcome for N#C/C(=C\c1ccc(O)c(O)c1)C(=O)c1ccc(O)c(O)c1 , thank you.
active

Dear all, I need the recorded test outcome for Nc1ccn([C@@H]2O[C@H](CO)[C@@H](O)[C@@H]2O)c(=O)n1 , thank you.
inactive
